biological target: T1, GRB2 SH2 domain (human, UniProt P62993 60-152); assay: fluorescence polarisation; saturation binding in solution: rhodamine peptide fixed at 10 nM, protein titrated 0.002-10 uM, 20 min at room temperature; assay buffer 20 mM HEPES, 100 mM KCl, 0.1% Tween-20, 5 mM DTT, pH 7.8; apparent KD; details: both partners purified
T1 construct: GRB2, human; source: bacterial expression, purified
T1 sequence (P62993 60-152): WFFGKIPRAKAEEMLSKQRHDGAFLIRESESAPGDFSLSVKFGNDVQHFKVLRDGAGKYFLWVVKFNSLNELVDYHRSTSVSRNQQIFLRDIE
Non-standard residues stand in square brackets, D forms with d. No end group written: not given here. pY = N[C@@H](Cc1ccc(OP(=O)(O)O)cc1)C(=O)O; rhodamine = not defined here
reportedEndpoint: pKd
Keep in mind that pKd stands for -log10 of concentration in molar terms.

Given rhodamine-NEPL[pY]LNTFANTD (reading uncertain, human ErbB4 around Tyr1208; the labelled form stood in the FP saturation assay behind Ki (exp FP); source: synthetic peptide) [ErbB4pY1208 phosphopeptide, rhodamine-labelled] , state its recorded pKd.
5.84
